test: Physiological stability of the compound at pH 1 assessed as compound remaining after 20 hrs in presence of 20% acetonitrile; type: physicochemical; details: read-out: Stability

structure.string	unit.string	remaining at 20 h
O=C(O)c1c(O)c(C2(c3ccc(Cl)cc3)CC2)nc2c(C(F)(F)F)cccc12	%	102

====

Measured inhibition at 3 µM, listed per entry for reference.
target: CYP2C9 (Homo sapiens, UniProt P11712); experiment: Inhibition of CYP2C9 at 3 uM; type: ADME
Sequence (P11712 whole entry): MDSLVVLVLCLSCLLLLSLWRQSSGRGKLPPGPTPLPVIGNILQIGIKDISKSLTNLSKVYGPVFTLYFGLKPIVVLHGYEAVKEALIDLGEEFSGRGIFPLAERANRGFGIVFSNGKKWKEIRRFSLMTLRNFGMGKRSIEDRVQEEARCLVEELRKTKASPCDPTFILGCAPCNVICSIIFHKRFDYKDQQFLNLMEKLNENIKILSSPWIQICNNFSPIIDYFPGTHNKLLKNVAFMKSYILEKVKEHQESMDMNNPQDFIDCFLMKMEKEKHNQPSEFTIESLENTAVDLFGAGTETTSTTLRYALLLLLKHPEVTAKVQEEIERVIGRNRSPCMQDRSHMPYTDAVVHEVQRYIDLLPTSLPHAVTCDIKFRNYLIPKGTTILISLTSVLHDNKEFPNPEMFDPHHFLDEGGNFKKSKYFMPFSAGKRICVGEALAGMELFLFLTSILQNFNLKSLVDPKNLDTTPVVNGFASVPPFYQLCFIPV

structure.string	target.desc	inhibition at 3 µM (%)
Cc1cc(C(F)(F)F)c2nc(C3(c4ccc(Cl)cc4)CC3)c(O)c(C(=O)O)c2c1	CYP2C9 (Homo sapiens, UniProt P11712)	72
Cc1cc(C)c2nc(C3(c4ccc(Cl)cc4)CC3)c(O)c(C(=O)O)c2c1	CYP2C9 (Homo sapiens, UniProt P11712)	17
CCc1cc(C(F)(F)F)cc2c(C(=O)O)c(O)c(C3(c4ccc(Cl)cc4)CC3)nc12	CYP2C9 (Homo sapiens, UniProt P11712)	43
O=C(O)c1c(O)c(C2(c3ccc(Cl)cc3)CC2)nc2c(C(F)(F)F)cc(Br)cc12	CYP2C9 (Homo sapiens, UniProt P11712)	65
Cc1cc(C(F)(F)F)c2nc(C3(c4ccccc4)CC3)c(O)c(C(=O)O)c2c1	CYP2C9 (Homo sapiens, UniProt P11712)	87
Cc1cc(C)c2nc(C3(c4ccccc4)CC3)c(O)c(C(=O)O)c2c1	CYP2C9 (Homo sapiens, UniProt P11712)	54
O=C(O)c1c(O)c(C2(c3ccc(Cl)cc3)CC2)nc2c(C(F)(F)F)cc(Cl)cc12	CYP2C9 (Homo sapiens, UniProt P11712)	72
Cc1cc(C(F)(F)F)cc2c(C(=O)O)c(O)c(C3(c4ccc(Cl)cc4)CC3)nc12	CYP2C9 (Homo sapiens, UniProt P11712)	42
Cc1ccc(C2(c3nc4c(C)cc(C)cc4c(C(=O)O)c3O)CC2)cc1	CYP2C9 (Homo sapiens, UniProt P11712)	55

====

assay: Clearance in Sprague-Dawley rat at 3 mg/kg, iv and 10 mg/kg, po; type: ADME, organism-based; conditions: in vivo
Field 'label' (enum: Condition met / Condition not met). Set to Condition met when clearance is strictly under 4 mL/min/kg; else Condition not met.

structure.string	assigned.category
O=C(O)c1c(O)c(C2(c3ccccc3)CC2)nc2c(C(O)(C(F)(F)F)C(F)(F)F)cccc12	Condition met
CC(C)c1cccc2c(C(=O)O)c(O)c(C3(c4ccccc4)CC3)nc12	Condition not met
Cc1ccc2c(C(=O)O)c(O)c(C3(c4ccc(Cl)cc4)CC3)nc2c1C	Condition not met
CCc1cccc2c(C(=O)O)c(O)c(C3(c4ccc(Cl)cc4)CC3)nc12	Condition met

====

system: Rattus norvegicus; experiment: Dose normalized AUC in Sprague-Dawley rat measured per mg of plasma at 3 mg/kg, iv and 10 mg/kg, po; format: ADME, organism-based; settings: in vivo
AUC below 2000 ng·h/mL gives Not met; AUC at or above it gives Met.

structure.string	target.desc	assigned.category
O=C(O)c1c(O)c(C2(c3ccccc3)CC2)nc2c3c(ccc12)CCCC3	Rattus norvegicus	Not met
O=C(O)c1c(O)c(C2Cc3ccccc3C2)nc2c(C(F)(F)F)cccc12	Rattus norvegicus	Not met
CC(C)(c1ccccc1)c1nc2c(C(F)(F)F)cccc2c(C(=O)O)c1O	Rattus norvegicus	Not met
CCc1cccc2c(C(=O)O)c(O)c(C3(c4ccc(C(F)(F)F)cc4)CC3)nc12	Rattus norvegicus	Met
O=C(O)c1c(O)c(C2(c3ccccc3)CC2)nc2c(C(O)(C(F)(F)F)C(F)(F)F)cccc12	Rattus norvegicus	Met

====

assay: Oral bioavailability in Sprague-Dawley rat at 10 mg/kg; format: ADME, organism-based; settings: in vivo
bioavailability below 80% gives not fulfilled; bioavailability at or above it gives fulfilled.

structure.string	assigned.category
CC(C)(c1ccccc1)c1nc2c(C(F)(F)F)cccc2c(C(=O)O)c1O	fulfilled
CCc1cccc2c(C(=O)O)c(O)c(C3(c4ccc(Cl)cc4)CC3)nc12	fulfilled
O=C(O)c1c(O)c(Cc2ccc(Cl)cc2)nc2c3c(ccc12)CCCC3	not fulfilled
CC(C)c1cccc2c(C(=O)O)c(O)c(C3(c4ccccc4)CC3)nc12	fulfilled
Cc1ccc2c(C(=O)O)c(O)c(C3(c4ccc(Cl)cc4)CC3)nc2c1C	not fulfilled
CC(C)c1cccc2c(C(=O)O)c(O)c(C3(c4ccc(F)cc4)CC3)nc12	not fulfilled

====

assay: Half life in human liver microsomes; type: ADME, Microsome
Measured half-life, listed per entry for reference.

compound	half-life
O=C(O)c1c(O)c(Cc2ccc(Cl)cc2)nc2c3c(ccc12)CCCC3 [PSI-697]	> 1 h
O=C(O)c1c(O)c(C2(c3ccc(Cl)cc3)CC2)nc2c(C(F)(F)F)cccc12	> 1 h

====

test: Physiological stability of the compound at pH 9 assessed as compound remaining after 20 hrs in presence of 20% acetonitrile; type: physicochemical; settings: read-out: Stability

structure.string	remaining at 20 h
O=C(O)c1c(O)c(C2(c3ccc(Cl)cc3)CC2)nc2c(C(F)(F)F)cccc12	101%

====

target: P-selectin glycoprotein ligand 1 (Homo sapiens); experiment: Inhibition of recombinant PSGL-1 at 250 uM by surface plasmon resonance assay
inhibition below 50% gives no (0); inhibition at or above it gives yes (1).

structure.string	assigned.category
O=C(O)c1c(O)c(C2(c3ccsc3)CC2)nc2c(C(F)(F)F)cccc12	no (0)
O=C(O)c1c(O)c(C2(c3ccccc3Cl)CC2)nc2c(C(F)(F)F)cccc12	yes (1)
O=C(O)c1c(O)c(C2(c3cccc(C(F)(F)F)c3)CC2)nc2c(C(F)(F)F)cccc12	no (0)
O=C(O)c1c(O)c(C2Cc3ccccc3C2)nc2c(C(F)(F)F)cccc12	no (0)
O=C(O)c1c(O)c(C2(c3ccc(Br)cc3)CC2)nc2c(C(F)(F)F)cccc12	yes (1)
CCc1cc(C(F)(F)F)c2nc(C3(c4ccc(Cl)cc4)CC3)c(O)c(C(=O)O)c2c1	no (0)
CCc1cc(C(F)(F)F)c2nc(C3(c4ccccc4)CC3)c(O)c(C(=O)O)c2c1	no (0)
O=C(O)c1c(O)c(C2(c3ccc(Cl)cc3)CC2)nc2c(C(F)(F)F)cc(Br)cc12	no (0)
O=C(O)c1c(O)c(C2(c3cccc(Cl)c3)CC2)nc2c(C(F)(F)F)cccc12	yes (1)

====

assay: Physiological stability of the compound at pH 7.4 assessed as compound remaining after 8 hrs in presence of 20% acetonitrile; format: physicochemical; details: read-out: Stability
property.name: remaining at 8 h (%)

structure.string	recorded.measurement
O=C(O)c1c(O)c(C2(c3ccc(Cl)cc3)CC2)nc2c(C(F)(F)F)cccc12	102

====

assay: Aqueous solubility of the compound at pH 9; assay type: physicochemical; details: aqueous solution, read-out: solubility

structure.string	unit.string	solubility
O=C(O)c1c(O)c(C2(c3ccc(Cl)cc3)CC2)nc2c(C(F)(F)F)cccc12	µg/mL	1070

====

assay: Physiological stability of the compound in simulated intestinal bile salts-lecithin mixture fluid assessed as compound remaining after 12 hrs in presence of 20% acetonitrile; assay type: physicochemical; conditions: read-out: Stability

structure.string	unit.string	remaining at 12 h
O=C(O)c1c(O)c(C2(c3ccc(Cl)cc3)CC2)nc2c(C(F)(F)F)cccc12	%	101

====

biological target: P-selectin glycoprotein ligand 1 (Homo sapiens); assay: Inhibition of recombinant PSGL-1 at 250 uM by surface plasmon resonance assay
Measured inhibition, listed per entry for reference.

compound	target.desc	result.operator	inhibition / %
Cc1ccc(C2(c3nc4c(C)cc(C)cc4c(C(=O)O)c3O)CC2)cc1	P-selectin glycoprotein ligand 1 (Homo sapiens)	=	11
Cc1ccc(C2(c3nc4c(C)c(C)ccc4c(C(=O)O)c3O)CC2)cc1	P-selectin glycoprotein ligand 1 (Homo sapiens)	=	24
O=C(O)c1c(O)c(C2(c3ccc(Cl)cc3)CC2)nc2c(C(F)(F)F)cc(Cl)cc12	P-selectin glycoprotein ligand 1 (Homo sapiens)	<	10
CC(Cc1ccccc1)c1nc2c(C(F)(F)F)cccc2c(C(=O)O)c1O (stereo not given)	P-selectin glycoprotein ligand 1 (Homo sapiens)	=	49
Cc1cc(C(F)(F)F)c2nc(C3(c4ccc(Cl)cc4)CC3)c(O)c(C(=O)O)c2c1	P-selectin glycoprotein ligand 1 (Homo sapiens)	=	65
Cc1cc(C(F)(F)F)cc2c(C(=O)O)c(O)c(C3(c4ccc(Cl)cc4)CC3)nc12	P-selectin glycoprotein ligand 1 (Homo sapiens)	=	40
CC(C)(c1ccccc1)c1nc2c(C(F)(F)F)cccc2c(C(=O)O)c1O	P-selectin glycoprotein ligand 1 (Homo sapiens)	=	59
COc1ccc(C2(c3nc4c(C(F)(F)F)cccc4c(C(=O)O)c3O)CC2)cc1	P-selectin glycoprotein ligand 1 (Homo sapiens)	=	26
Cc1cc(C)c2nc(C3(c4ccccc4)CC3)c(O)c(C(=O)O)c2c1	P-selectin glycoprotein ligand 1 (Homo sapiens)	=	20
CC(C)C(c1ccc(Cl)cc1)c1nc2c(C(F)(F)F)cccc2c(C(=O)O)c1O (stereo not given)	P-selectin glycoprotein ligand 1 (Homo sapiens)	<	10
